# protocol-details: recombinant UMI read abundance after kanamycin selection (control-corrected) (log10(CPM+1)); higher = more efficient recombination; extreme values may be limits of the assay; sequences stand for … in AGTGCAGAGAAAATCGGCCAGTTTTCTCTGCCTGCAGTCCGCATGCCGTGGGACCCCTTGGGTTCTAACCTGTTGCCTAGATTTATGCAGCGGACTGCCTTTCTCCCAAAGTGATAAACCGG…AGGTTGGTTTCACT; site = the 11-nt donor
Documented recombinant UMI read abundance (log10) across a set of sequences
quantity-measured: recombinant UMI read abundance (log10)

1) CGCTCCTCATGGACCGGTTTTCCCGGTAATCCGTATTTGCC (site CACTCCTCTGG) ... 2.35
2) AAGTCCACATGGACCGGTTTTCCCGGTAATCCGTATTTGCC (site AAGTCCACTGG) ... 1.61
3) CCTAAAGCATGGACCGGTTTTCCCGGTAATCCGTATTTGCT (site CCTAAAGCTAA) ... 0.00467
4) CGACGTACATGGACCGGTTTTCCCGGTAATCCGTATTTGCT (site CGACGTACTAG) ... 2.45
5) CTCTAAACATGGACCGGTTTTCCCGGTAATCCGTATTTGCT (site CTCTACACTAG) ... 0.676
6) GGTCCCTCATGGACCGGTTTTCCCGGTAATCCGTATTTGTG (site GGTCCCTCTCA) ... 0.413
7) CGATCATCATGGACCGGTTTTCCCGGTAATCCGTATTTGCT (site CGATCTTCTAG) ... 0
8) CAAGCGCCATGGACCGGTTTTCCCGGTAATCCGTATTTGGG (site CAAGCGCCTCA) ... 0.0177
9) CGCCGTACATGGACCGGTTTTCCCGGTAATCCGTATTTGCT (site CGCCGTACTAC) ... 0.00604
10) GGGGAGGCATGGACCGGTTTTCCCGGTAATCCGTATTTGTG (site GTGGAGGCTCA) ... 0.134
11) ACATCTACATGGACCGGTTTTCCCGGTAATCCGTATTTGTG (site ATATCTACTCA) ... 0.245
12) CACTCCGCATGGACCGGTTTTCCCGGTAATCCGTATTTGCC (site CACTCCACTGG) ... 2.05
13) CTGGCATCATGGACCGGTTTTCCCGGTAATCCGTATTTGAC (site CTGGCATCTGT) ... 1.53

###

# protocol-details: recombinant barcode read abundance after kanamycin selection (control-corrected) (log10(CPM+1)); higher = more efficient recombination; sequences stand for … in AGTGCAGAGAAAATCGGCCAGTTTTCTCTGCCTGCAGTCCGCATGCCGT…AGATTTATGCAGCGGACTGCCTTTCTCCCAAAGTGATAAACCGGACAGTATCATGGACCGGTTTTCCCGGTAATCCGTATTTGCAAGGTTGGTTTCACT; site = the 11-nt target
quantity-measured: recombinant barcode read abundance (log10)

1) TCTGGGGCTTGGGTTCTAACCTGTTGCGG (site TCTGGGGCTCA) ... 0.376
2) TAGAAGGCTTGGGTTCTAACCTGTTGCAT (site TAGAAGGCTAT) ... 1.97
3) GCATGAGCTTGGGTTCTAACCTGTTGCCT (site GCGTGAGCTAG) ... 0.136
4) TGATATTCTTGGGTTCTAACCTGTTGCCT (site TGATATTCTAG) ... 0.245
5) AGTCTCCCTTGGGTTCTAACCTGTTGCCT (site AGTCTCCCTAG) ... 1.56
6) TCTTGGTCTTGGGTTCTAACCTGTTGCTA (site TCTTGGTCTTA) ... 0.0413
7) GTCCTATCTTGGGTTCTAACCTGTTGCAC (site CGAGGCCCTAA) ... 0.0371
8) TCTACCTCTTGGGTTCTAACCTGTTGCCT (site TCTACTTCTAG) ... 0.0484
9) GGGTACACTTGGGTTCTAACCTGTTGCTA (site GGGTACACTTA) ... 2.12
10) GACAATGCTTGGGTTCTAACCTGTTGCAT (site GACAATGCTAT) ... 0.105
11) CTATGTGCTTGGGTTCTAACCTGTTGCTT (site CTATGTGCTAC) ... 0.37
12) GGGTCGGCTTGGGTTCTAACCTGTTGCTG (site GTCTCGGCTCA) ... 0.0584
13) GAGTTGTCTTGGGTTCTAACCTGTTGCGG (site CTCGCCACTAG) ... 0.0798
14) CTAGTGGCTTGGGTTCTAACCTGTTGCCG (site CTAGTGGCTCG) ... 1.3
15) TAGCAGACTTGGGTTCTAACCTGTTGCCT (site TAGCCGACTAG) ... 0.034
16) TTCGGGCCTTGGGTTCTAACCTGTTGCCT (site CTCGGGCCTAG) ... 0.0465
17) TTGCAAACTTGGGTTCTAACCTGTTGCCT (site TTGCAAACTAG) ... 0.501
18) CACCACTCTTGGGTTCTAACCTGTTGCCT (site AACCACTCTAG) ... 0.545
19) CGCGAATCTTGGGTTCTAACCTGTTGCTT (site CGCGGGTCTAA) ... 0.168
20) TCAAATTCTTGGGTTCTAACCTGTTGCCT (site TCACATTCTAG) ... 0.0721
21) GACCGTCCTTGGGTTCTAACCTGTTGCGT (site GACCGTCCTAA) ... 0.306
22) GTCCAGACTTGGGTTCTAACCTGTTGCCT (site GTCCAGACTAG) ... 1.97
23) GCGGCTTCTTGGGTTCTAACCTGTTGCCT (site GGGGCTTCTAG) ... 0.0151
24) GCTCTAGCTTGGGTTCTAACCTGTTGCTA (site GCTCTAGCTTA) ... 0.515
25) GATGCGACTTGGGTTCTAACCTGTTGCCG (site GATGCGACTCG) ... 0.968
26) TCTTGGACTTGGGTTCTAACCTGTTGCTT (site TCTTGGACTCA) ... 0.145
27) AACTTCTCTTGGGTTCTAACCTGTTGCCT (site AACTTCGCTAG) ... 0.0209
